- systemTested: T1, GST-Yap8-R11A (Saccharomyces cerevisiae, UniProt Q06596 1-294, R11A)
- T1 sequence: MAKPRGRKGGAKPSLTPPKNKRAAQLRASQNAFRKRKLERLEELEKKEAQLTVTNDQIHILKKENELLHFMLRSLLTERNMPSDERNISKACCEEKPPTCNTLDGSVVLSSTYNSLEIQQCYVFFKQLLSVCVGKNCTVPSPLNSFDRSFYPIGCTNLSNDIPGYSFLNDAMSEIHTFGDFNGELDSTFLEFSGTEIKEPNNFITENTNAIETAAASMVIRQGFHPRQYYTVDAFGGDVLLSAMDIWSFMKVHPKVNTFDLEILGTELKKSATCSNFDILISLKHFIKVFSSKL
- testDescription: fluorescence anisotropy; series b; FA: 10 mM Tris-HCl pH 8, 50 mM NaCl, 0.5% NP-40, 1 mM DTT, 5% glycerol, 1 nM DNA, 25C (half volume protein elution buffer). Biotin EMSA: LightShift 1x buffer, 50 ng poly(dI-dC), 2.5% glycerol, 0.05% NP-40, 5 mM MgCl2, 20 fmol probe, RT 20 min. 32P EMSA: 10 mM Tris-HCl pH 8.0, 50 mM NaCl, 1 mM DTT, 0.05% NP-40, 100 ng poly(dI-dC), 6% glycerol, 4C 30 min
- measurementContext: protein: recombinant; tags: GST (N-term); chain copies: 2; label: 5' FAM; blunt

binder | Kd
ACR3-WT (FAM) (dsDNA) DNA 1: CTTTTTGTTTGATTAATAATCAACTTTAGCG DNA 2: CGCTAAAGTTGATTATTAATCAAACAAAAAG | 18.9 nM
